Molecular target: serine hydroxymethyltransferase 2 (SHMT2) (Homo sapiens)
Sequence (P34897 30-504): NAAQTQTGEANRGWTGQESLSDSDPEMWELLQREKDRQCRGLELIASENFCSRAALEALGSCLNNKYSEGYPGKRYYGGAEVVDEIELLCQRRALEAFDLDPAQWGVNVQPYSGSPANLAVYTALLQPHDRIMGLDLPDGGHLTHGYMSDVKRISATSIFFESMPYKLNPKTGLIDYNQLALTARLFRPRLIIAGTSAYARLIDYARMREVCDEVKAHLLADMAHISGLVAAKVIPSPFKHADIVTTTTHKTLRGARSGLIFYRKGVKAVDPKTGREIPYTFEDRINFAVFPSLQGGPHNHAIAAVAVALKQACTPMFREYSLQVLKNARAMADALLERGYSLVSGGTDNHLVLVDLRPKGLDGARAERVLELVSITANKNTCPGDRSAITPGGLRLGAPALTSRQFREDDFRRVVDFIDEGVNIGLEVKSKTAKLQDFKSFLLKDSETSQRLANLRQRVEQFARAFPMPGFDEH
Assay: microscale thermophoresis with labeled recombinant human SHMT2
endpoint-label: Kd (µM)
Write the number in µM without appending the unit.

Fill in the blank: the reported Kd of CN[C@H]1CC[C@@H](c2ccc(Cl)c(Cl)c2)c2ccccc21 [sertraline] is ____.
13.1
